Origin of measurements: patent US20240123070A1

biological target: T1, KRAS G13D (G13D-RT6) peptide on HLA-DQA1*05:01 / HLA-DQB1*03:01 (human); assay: NFAT-luciferase; Jurkat-NFAT-Luc with the TCR and Lovo-DPA0301:DPB0501 cells loaded with G13D-RT6; against wild-type B8.2.4 TCR; full-length, on cells; conditions: chains Valpha:Vbeta
T1 chain: YKLVVVGAGDVGKSAL
Known TCR Mut RLU/WT RLU of a selection of binders
assayMetric: TCR Mut RLU/WT RLU

[
  {
    "binder": "B8.2.4 TCR mutant β97V-I (protein) chain 1: AQKITQTQPGMFVQEKEAVTLDCTYDTSDPSYGLFWYKQPSSGEMIFLIYQGSYDQQNATEGRYSLNFQKARKSANLVISASQLGDSAMYFCAMRERTGTASKLTFGTGTRLQVTL chain 2: DVKVTQSSRYLVKRTGEKVFLECVQDMDHENMFWYRQDPGLGLRLIYFSYDVKMKEKGDIPEGYSVSREKKERFSLILESASTNQTSMYLCASSQTIPPQHFGDGTRLSIL",
    "value": 0.61
  },
  {
    "binder": "B8.2.4 TCR mutant β98P-G (protein) chain 1: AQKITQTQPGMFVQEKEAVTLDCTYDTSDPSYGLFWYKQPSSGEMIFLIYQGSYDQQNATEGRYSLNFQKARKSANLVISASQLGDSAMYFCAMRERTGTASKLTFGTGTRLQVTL chain 2: DVKVTQSSRYLVKRTGEKVFLECVQDMDHENMFWYRQDPGLGLRLIYFSYDVKMKEKGDIPEGYSVSREKKERFSLILESASTNQTSMYLCASSQTVGPQHFGDGTRLSIL",
    "value": 0.73
  },
  {
    "binder": "B8.2.4 TCR mutant β98P-S (protein) chain 1: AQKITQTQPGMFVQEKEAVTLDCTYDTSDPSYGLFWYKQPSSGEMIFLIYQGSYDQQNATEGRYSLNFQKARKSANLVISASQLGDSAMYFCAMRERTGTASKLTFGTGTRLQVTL chain 2: DVKVTQSSRYLVKRTGEKVFLECVQDMDHENMFWYRQDPGLGLRLIYFSYDVKMKEKGDIPEGYSVSREKKERFSLILESASTNQTSMYLCASSQTVSPQHFGDGTRLSIL",
    "value": 0.94
  }
]
